target: wild type PKR (Homo sapiens, UniProt P30613); experiment: PKR (wild type) enzyme AC50 assay, LDH/NADH-coupled, absorbance at 340 nm; type: biochemical; details: Table 2; enzyme assay; read-out: PKR WT AC50
Sequence (P30613 whole entry): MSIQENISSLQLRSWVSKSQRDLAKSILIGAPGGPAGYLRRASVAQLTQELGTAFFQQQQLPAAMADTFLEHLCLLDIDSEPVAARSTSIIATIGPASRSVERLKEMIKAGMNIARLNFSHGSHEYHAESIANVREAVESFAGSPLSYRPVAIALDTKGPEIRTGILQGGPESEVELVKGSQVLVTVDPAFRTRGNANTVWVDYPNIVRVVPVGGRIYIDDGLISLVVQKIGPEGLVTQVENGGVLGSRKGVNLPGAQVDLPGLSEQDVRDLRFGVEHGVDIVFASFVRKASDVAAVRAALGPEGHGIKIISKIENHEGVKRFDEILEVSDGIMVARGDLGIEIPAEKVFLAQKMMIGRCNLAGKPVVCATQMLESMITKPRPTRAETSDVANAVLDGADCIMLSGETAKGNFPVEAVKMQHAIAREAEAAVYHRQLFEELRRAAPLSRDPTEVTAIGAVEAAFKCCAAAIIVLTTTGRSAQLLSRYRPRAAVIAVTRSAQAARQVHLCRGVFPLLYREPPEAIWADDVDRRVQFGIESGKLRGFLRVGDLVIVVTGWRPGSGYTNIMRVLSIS
Examples of compounds with documented AC50 follow.

[[record]]
compound = "CC(c1ccccc1)c1nc2c(s1)c1cnn(Cc3cccc4[nH]ncc34)c(=O)c1n2C (centres unmarked) [Compound 119]"
tgt = "wild type PKR (Homo sapiens, UniProt P30613)"
test_readout = "AC50"
recorded_result = "< 300 nM"

[[record]]
compound = "Cc1nc2c(s1)c1cnn(Cc3c[nH]cn3)c(=O)c1n2C [Compound 42]"
tgt = "wild type PKR (Homo sapiens, UniProt P30613)"
test_readout = "AC50"
recorded_result = "> 800 nM"

[[record]]
compound = "Cn1c2nc(C(N)=O)sc2c2cnn(Cc3csc(N)n3)c(=O)c21 [Compound 146]"
tgt = "wild type PKR (Homo sapiens, UniProt P30613)"
test_readout = "AC50"
recorded_result = "301 to 800 nM"

[[record]]
compound = "C=Cc1nc2c(s1)c1cnn(Cc3cccc(OC)c3)c(=O)c1n2C [Compound 37]"
tgt = "wild type PKR (Homo sapiens, UniProt P30613)"
test_readout = "AC50"
recorded_result = "301 to 800 nM"


// moving on: another record for AC50
AC50 reported for this compound COc1cccc(Cn2ncc3c4sc(C)nc4n(C)c3c2=O)n1 [Compound 27] : < 300 nM

Data origin, for the record: patent US11957680B2
